Listed next: entries and their corresponding ED50.
Molecular target: Sterol O-acyltransferase, Soat (Rattus norvegicus) (UniProt Q7TQM4+O70536)
Experiment: Effective dose to reduce plasma total cholesterol level by 50% of the control value in cholesterol fed rats
Format: functional

Sample records with ED50:
[
  {
    "smiles_record": "CSc1cc(C)nc(SC)c1NC(=O)N(Cc1ccccc1)Cc1cccc(-c2ccnn2C)c1",
    "ED50": "< 1 mg/kg"
  },
  {
    "smiles_record": "Cc1cc(C)c(NC(=O)N(Cc2ccc(-c3cn[nH]c3)cc2)C2CCCCCC2)c(C)c1",
    "ED50": "> 1 mg/kg"
  }
]

Entry Cc1cc(C)c(NC(=O)N(Cc2cc(-c3ccccc3)cs2)C2CCCCCC2)c(C)c1 ; ED50 = < 1 mg/kg

* * *

Biological target: Sterol O-acyltransferase, Soat (Rattus norvegicus) (UniProt Q7TQM4+O70536)
Assay: Effective dose to reduce plasma total cholesterol level by 50% of the control value in cholesterol fed rats
Format: functional
Listed next: entries and their corresponding ED50.

Sample records with ED50:
[
  {
    "smiles_record": "CC(C)c1cccc(C(C)C)c1OC(=O)NS(=O)(=O)Oc1c(C(C)C)cccc1C(C)C",
    "system_under_test": "Sterol O-acyltransferase, Soat (Rattus norvegicus) (UniProt Q7TQM4+O70536)",
    "measurement_name": "ED50",
    "value_measured": "0.61 mg/kg"
  },
  {
    "smiles_record": "Cc1cc(C)c(NC(=O)N(Cc2ccc(-c3ccccn3)cc2)C2CCCCCC2)c(C)c1",
    "system_under_test": "Sterol O-acyltransferase, Soat (Rattus norvegicus) (UniProt Q7TQM4+O70536)",
    "measurement_name": "ED50",
    "value_measured": "> 1 mg/kg"
  }
]

Entry Cc1cc(C)c(NC(=O)N(Cc2cccc(-c3ccnn3C)c2)C2CCCCCC2)c(C)c1 ; ED50 = > 1 mg/kg

* * *

Target: Sterol O-acyltransferase, Soat (Rattus norvegicus) (UniProt Q7TQM4+O70536)
Assay: Effective dose to reduce plasma total cholesterol level by 50% of the control value in cholesterol fed rats
Format: functional
measurement_name: ED50

Measured ED50 (Sterol O-acyltransferase, Soat (Rattus norvegicus) (UniProt Q7TQM4+O70536)), entry Cc1cc(C)c(NC(=O)N(Cc2ccc(-c3n[nH]c(C)n3)cc2)C2CCCCCC2)c(C)c1 : > 1 mg/kg

Measured ED50 (Sterol O-acyltransferase, Soat (Rattus norvegicus) (UniProt Q7TQM4+O70536)), entry Cc1cc(C)c(NC(=O)N(Cc2ccc(-c3ccccc3)s2)C2CCCCCC2)c(C)c1 : < 1 mg/kg

Measured ED50 (Sterol O-acyltransferase, Soat (Rattus norvegicus) (UniProt Q7TQM4+O70536)), entry Cc1cc(C)c(NC(=O)N(Cc2cccc(-c3nnn(C)n3)c2)C2CCCCCC2)c(C)c1 : < 1 mg/kg

Measured ED50 (Sterol O-acyltransferase, Soat (Rattus norvegicus) (UniProt Q7TQM4+O70536)), entry CSc1cc(C)nc(SC)c1NC(=O)N(Cc1ccccc1)Cc1cccc(-c2cnn(C)c2)c1 : > 0.1 mg/kg

* * *

Biological target: Sterol O-acyltransferase, Soat (Rattus norvegicus) (UniProt Q7TQM4+O70536)
Assay: Effective dose to reduce plasma total cholesterol level by 50% of the control value in cholesterol fed rats
Format: functional
Listed next: entries and their corresponding ED50.

Sample records with ED50:
[
  {
    "smiles_record": "CSc1cc(C)nc(SC)c1NC(=O)N(Cc1ccccc1)Cc1cccc(-c2ccn(C)n2)c1",
    "ED50": "< 1 mg/kg"
  },
  {
    "smiles_record": "Cc1cc(C)c(NC(=O)N(Cc2cccc(-c3c[nH]cn3)c2)C2CCCCCC2)c(C)c1",
    "ED50": "< 1 mg/kg"
  }
]

Let us move to another entry and its ED50.
Entry O=C(Nc1c(F)cc(F)cc1F)N(Cc1ccc(-c2ccsc2)cc1)C1CCCCCC1 ; ED50 = > 1 mg/kg

// data source = ChEMBL document CHEMBL1131624
